molecular target: human recombinant ENPP1 (Homo sapiens, UniProt P22413); construct: purchased R&D systems; assay: in vitro recombinant human ENPP1 enzymatic assay (AMP-Glo, cGAMP substrate); format: biochemical; details: Table 2; average ± SD from two or three independent repeats
Sequence (P22413 whole entry): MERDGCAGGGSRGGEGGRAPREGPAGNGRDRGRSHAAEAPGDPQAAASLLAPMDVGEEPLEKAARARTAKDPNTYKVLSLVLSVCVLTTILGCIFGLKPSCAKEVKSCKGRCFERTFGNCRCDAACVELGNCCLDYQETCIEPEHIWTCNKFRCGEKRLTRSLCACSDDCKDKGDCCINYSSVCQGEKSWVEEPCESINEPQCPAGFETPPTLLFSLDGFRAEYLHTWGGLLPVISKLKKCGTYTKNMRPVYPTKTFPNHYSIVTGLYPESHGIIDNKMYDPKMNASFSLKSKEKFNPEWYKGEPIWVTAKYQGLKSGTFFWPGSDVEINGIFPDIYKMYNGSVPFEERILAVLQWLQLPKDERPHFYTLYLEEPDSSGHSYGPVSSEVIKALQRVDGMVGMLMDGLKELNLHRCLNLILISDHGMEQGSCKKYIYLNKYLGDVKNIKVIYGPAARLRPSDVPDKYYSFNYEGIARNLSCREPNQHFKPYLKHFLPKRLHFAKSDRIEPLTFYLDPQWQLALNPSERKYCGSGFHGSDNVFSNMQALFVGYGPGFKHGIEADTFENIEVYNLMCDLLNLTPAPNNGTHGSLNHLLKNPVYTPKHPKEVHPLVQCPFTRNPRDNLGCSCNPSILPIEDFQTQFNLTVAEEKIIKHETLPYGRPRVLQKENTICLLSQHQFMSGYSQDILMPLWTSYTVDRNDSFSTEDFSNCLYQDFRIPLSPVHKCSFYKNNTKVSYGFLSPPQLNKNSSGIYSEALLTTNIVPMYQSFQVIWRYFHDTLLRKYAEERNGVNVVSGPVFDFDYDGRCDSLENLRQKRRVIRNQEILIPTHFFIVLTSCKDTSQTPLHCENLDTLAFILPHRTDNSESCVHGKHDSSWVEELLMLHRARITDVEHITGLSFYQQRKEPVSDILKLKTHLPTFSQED
property: IC50 (µM)
Note: unit µM is implicit; provide only the numeric part.

Read the entry CC(C)(NS(N)(=O)=O)c1ccc(-c2ncnc3[nH]ccc23)cc1 [25h] and write its reported IC50. 1.47

For the compound NS(=O)(=O)NCc1cccc(-c2ncnc3[nH]ccc23)c1 [25g] , give its reported IC50. 4.77

Answer with the recorded IC50 of NS(=O)(=O)NCc1ccc(-c2ncnc3[nH]ccc23)cc1 [25d] only. 7.6

The measured values listed here are drawn from paper PMC9467556.
